Growth percentage reference
- Test system: Breast cancer cell MCF-7
- experiment_description: Preliminary cytotoxicity test; also: test concentration or dose not given here
- Format: cell-based, human
Just the number please, in %, no unit attached.

Examples with answers:
- smiles_str: "Cc1ccc(C#CC=CC#Cc2ccccc2C#N)cc1"
  reported_value: 80
- smiles_str: "N#Cc1ccccc1C#CC=CC#Cc1ccc(N)cc1"
  reported_value: 100
- smiles_str: "N#Cc1ccccc1C#CC=CC#Cc1cccs1"
  reported_value: 49

Look up Growth percentage for this compound: COc1ccc(C#CC=CC#Cc2ccccc2C#N)cc1
90

Look up Growth percentage for this compound: FC(F)(F)c1ccc(C#Cc2ccccc2C#Cc2ccc(C(F)(F)F)cc2)cc1
37

* * *

- study_target: topoisomerase I (Homo sapiens, UniProt P11387)
- Sequence (P11387 whole entry): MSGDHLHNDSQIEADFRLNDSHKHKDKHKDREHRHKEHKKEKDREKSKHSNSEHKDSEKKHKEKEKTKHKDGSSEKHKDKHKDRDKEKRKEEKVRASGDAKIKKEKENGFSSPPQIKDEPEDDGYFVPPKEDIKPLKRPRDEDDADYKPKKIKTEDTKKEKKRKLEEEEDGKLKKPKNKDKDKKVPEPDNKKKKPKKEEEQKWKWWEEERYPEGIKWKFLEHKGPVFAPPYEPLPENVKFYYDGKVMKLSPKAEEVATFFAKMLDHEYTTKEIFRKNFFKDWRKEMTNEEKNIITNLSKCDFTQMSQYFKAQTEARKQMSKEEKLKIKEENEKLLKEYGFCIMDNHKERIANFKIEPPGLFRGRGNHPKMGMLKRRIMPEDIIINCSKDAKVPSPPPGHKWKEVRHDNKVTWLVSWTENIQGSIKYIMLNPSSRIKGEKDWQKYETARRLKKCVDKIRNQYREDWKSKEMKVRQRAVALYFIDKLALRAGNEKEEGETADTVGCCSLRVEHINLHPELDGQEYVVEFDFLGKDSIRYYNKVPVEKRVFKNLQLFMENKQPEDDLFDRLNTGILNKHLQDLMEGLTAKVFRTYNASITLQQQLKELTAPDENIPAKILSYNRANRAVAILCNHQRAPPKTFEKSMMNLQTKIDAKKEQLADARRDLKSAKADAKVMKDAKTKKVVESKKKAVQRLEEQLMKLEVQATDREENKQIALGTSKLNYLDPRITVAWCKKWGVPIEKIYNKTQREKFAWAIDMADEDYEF
- experiment_description: Topoisomerase I assay, cleavage of supercoiled pGEM9zf(−) DNA, gel electrophoresis
- Assay type: biochemical
- cond: from FIGS. 1 and 2

- smiles_str: "CCCCCCC#C/C=C\\C#Cc1ccc(-c2ccc(C#C/C=C\\C#CCCCCCC)cc2)cc1"
  topo I inhibitor, overall conclusion: "not topo I inhibitors"
- smiles_str: "CCCCCCC#C/C=C\\C#Cc1ccc(C#C/C=C\\C#CCCCCCC)cc1"
  topo I inhibitor, overall conclusion: "not topo I inhibitors"

* * *

- Test system: CNS cancer cell SF-268
- experiment_description: Preliminary cytotoxicity test; also: test concentration or dose not given here
- Assay type: cell-based, human
Marks after values point to notes of the source that are not given here.
endpoint_label: Growth percentage

Examples with answers:
- smiles_str: "N#Cc1ccccc1C#CC=CC#Cc1ccc(N)cc1"
  endpoint_label: "Growth percentage"
  reported_value: "92%"
- smiles_str: "N#Cc1ccccc1C#CC=CC#Cc1ccccc1N"
  endpoint_label: "Growth percentage"
  reported_value: "27* %"

Now let's try a different one.
Look up Growth percentage for this compound: COc1ccc(C#CC=CC#Cc2ccccc2C#N)cc1
91%

* * *

- Test system: Breast cancer cell MCF-7
- experiment_description: Preliminary cytotoxicity test; also: test concentration or dose not given here
- Type: cell-based, human
endpoint_label: Growth percentage (%)
Just the number please, in %, no unit attached.

- compound: "N#Cc1ccccc1C#CC=CC#Cc1cnccn1 [Compound 30]"
  endpoint_label: "Growth percentage"
  reported_value: 73
- compound: "N#Cc1ccccc1C#CC=CC#Cc1ccccn1 [Compound 27]"
  endpoint_label: "Growth percentage"
  reported_value: 49

Now let's try a different one.
Look up Growth percentage for this compound: N#Cc1ccccc1C#CC=CC#Cc1ccccc1N [Compound 32]
36

Data provenance is patent US7332623B2.
